Method summary: Solubility in water
Assay type: physicochemical
Conditions used: sodium phosphate buffer, pH 7.4
Recorded endpoint: solubility at 24 h
Value and unit, in that order.

Asked: Specify measured solubility at 24 h for `O=C(O)CCCNC(=O)NC12CC3CC(CC(C3)C1)C2` .
Given back: 7 µg/mL
